Data origin, for the record: the supplement of paper PMC11865577

Tested on: TO-N3 (biotin conjugate)
Test: pull-down binding Z-score (relative to library population); higher = stronger binding
Conditions: RNA library: Library-2
Provide the reported pull-down binding Z-score of each item.
Numbers only.

Answered cases to consult:
>>> number("ACACAUUCUGACAAAUUCACAGAUGGUGU [SHAPE_invitro_SARS-CoV-2_Motif_350]")
-0.471
>>> number("AUUGGCGACCCUGCUCAAU [DMSMaPseq_invitro_SARS-CoV-2_Motif_311]")
0.0933
>>> number("CCCCGGCCCCGGCCCCGGCCCCGG [r(CCCCGG)4]")
0.747
>>> number("GAGUUUGGAGUCGGUGGGUGGAGCCAAACUG [hsa-mir-6860]")
1.5
>>> number("GAUUUCUAUGAGAACAUC [hsa-mir-3675]")
-1.02

Need pull-down binding Z-score for each of these sequences.
1. GUCUCGCACCCGCGAGAU [IAV_invivo_PB2_1_Motif_2+IAV_invivo_PB2_1_Motif_2]
2. UACAAUUUGCCUAUGCCAACAGGAAUAGGUUUUUGUA

0.279
-0.122

Need pull-down binding Z-score for each of these sequences.
1. CAGUGGCAGAUUUUCCCAUAG [hsa-mir-4727]
2. UUUCUCUUGUCUAAAAGAAAAGAAA [hsa-mir-518f]
3. CCUACUGAUGG [IAV_invivo_PA_3_Motif_12+IAV_invivo_PA_3_Motif_12]
4. AAGCUGACAGACAGCUG [hsa-mir-5691]
5. UCAGGCUUUAAUGUUUGAAGUAAUGUCAGU [hsa-mir-6874]

-0.439
-0.8
-0.319
0.144
0.555

----------
Test system: TO-N3 (biotin conjugate)
Experiment: pull-down binding Z-score (relative to library population); higher = stronger binding
Conditions: RNA library: Library-2
Observation type: pull-down binding Z-score
Numbers only.

Answered cases to consult:
>>> number("CUUUGGUGGCUAUGGUUGACUGGGCCACUCAGAG [hsa-mir-4468]")
-0.123
>>> number("GGUUUGUUGCC [IAV_invivo_PB1_2_Motif_26+IAV_invivo_PB1_2_Motif_26]")
-0.146
>>> number("UUUAGUAUGCCACAUUUCUAAA [hsa-mir-4282]")
-0.757
>>> number("UGUAUGUGUAAAUACAUAUCCACACA [hsa-mir-4789]")
-0.285

What does the data say about its pull-down binding Z-score? Entry: CCAGGCCCCACGGAGAACCAGGGCACCUGG [hsa-mir-8058] -0.188

----------
Tested on: TO-3-N3 (biotin conjugate)
Assay: pull-down binding Z-score (relative to library population); higher = stronger binding
Settings: RNA library: Library-2
Respond with true for pull-down binding Z-score values of -0.5 and above, false for values below.

Recorded results for 4 sequences are shown here.
>>> class_assignment("GCAGCUAGUAAUAUGAGCCCAGUUGC [hsa-mir-153-2]")
"true"
>>> class_assignment("AAAUAAAAGAUGGAGUCGUUUGACGUCUUUUAACACCCUUU [hsa-mir-8055]")
"false"
>>> class_assignment("UGUUUUUGCCAUUAAAAAUAAUGGCAUUAAAAGUAAUGGCAAAAACG [hsa-mir-548al]")
"true"
>>> class_assignment("UCAUAAAUAUUUUAAGGAAUGACCCGGCCCUGGGG [hsa-mir-4285]")
"true"

Switching to the query record.
Hi, just wondering whether AAAUUGCAGACACUAGGACCAUGUCUUGGUUUUUGCAAUAAUG [hsa-mir-1248] shows pull-down binding Z-score of -0.5 or higher. true
